measured.target: EP2 S86A (Homo sapiens, UniProt P43116, S86A)
Construct: The full-length EP2 or EP4 was cloned into the pcDNA3.1 vector; FLAG (N)
Sequence (P43116 whole entry S86A): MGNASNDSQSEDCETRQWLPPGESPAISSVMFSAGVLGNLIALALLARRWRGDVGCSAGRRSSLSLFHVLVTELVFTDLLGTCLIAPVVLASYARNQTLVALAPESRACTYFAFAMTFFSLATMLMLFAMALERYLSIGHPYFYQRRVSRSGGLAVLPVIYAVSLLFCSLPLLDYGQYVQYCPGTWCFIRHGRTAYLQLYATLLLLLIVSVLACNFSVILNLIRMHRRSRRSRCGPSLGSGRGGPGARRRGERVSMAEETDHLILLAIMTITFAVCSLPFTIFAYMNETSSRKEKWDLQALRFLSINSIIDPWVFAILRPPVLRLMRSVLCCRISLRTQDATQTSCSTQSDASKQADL
assay.info: GloSensor cAMP assay, antagonism of PGE2-induced cAMP
observed.property: IC50 (nM)
Respond with the bare value in nM.

Enquiry: Check the records and state IC50 for CCc1nnc(NS(=O)(=O)c2ccc(NC(=S)NC(=O)/C=C/c3ccc(F)cc3)cc2)s1
Return: 339

###

measured.target: constitutively active EP2 S305A (Homo sapiens, UniProt P43116, S305A)
Construct: The full-length EP2 or EP4 was cloned into the pcDNA3.1 vector; FLAG (N)
Sequence (P43116 whole entry S305A): as the sequence (P43116 whole entry S86A) above, with A86S, S305A counted along it
assay.info: GloSensor cAMP assay, inhibition of constitutive activity
observed.property: IC50 (µM)
Answer in µM, number only, no unit symbol.

Enquiry: Return value of IC50 for input CCc1nnc(NS(=O)(=O)c2ccc(NC(=S)NC(=O)/C=C/c3ccc(F)cc3)cc2)s1 , no commentary.
Return: 0.0501

###

measured.target: EP4 WT (Homo sapiens, UniProt P35408)
Construct: The full-length EP2 or EP4 was cloned into the pcDNA3.1 vector; FLAG (N)
Sequence (P35408 whole entry): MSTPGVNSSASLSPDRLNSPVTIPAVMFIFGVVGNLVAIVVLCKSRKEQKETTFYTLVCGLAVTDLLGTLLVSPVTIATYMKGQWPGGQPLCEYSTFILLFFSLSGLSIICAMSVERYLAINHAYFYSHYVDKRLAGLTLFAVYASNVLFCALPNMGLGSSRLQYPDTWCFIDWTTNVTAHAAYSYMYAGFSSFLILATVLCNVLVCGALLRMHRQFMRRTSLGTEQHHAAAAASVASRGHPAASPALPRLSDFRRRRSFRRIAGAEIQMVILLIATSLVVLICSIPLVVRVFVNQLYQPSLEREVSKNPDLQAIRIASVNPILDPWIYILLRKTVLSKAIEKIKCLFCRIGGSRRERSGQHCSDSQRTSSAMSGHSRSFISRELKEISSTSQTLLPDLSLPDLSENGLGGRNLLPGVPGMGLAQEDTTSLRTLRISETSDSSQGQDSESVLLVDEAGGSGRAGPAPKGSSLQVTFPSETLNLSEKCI
assay.info: GloSensor cAMP assay, antagonism of PGE2-induced cAMP
observed.property: IC50 (nM)
Report only the number, with the unit nM understood.

Enquiry: Supply IC50 value. Item: CCc1nc2c(C)nc(C)cc2n1-c1ccc(CCNC(=O)NS(=O)(=O)c2ccc(C)cc2)cc1
Return: 35.5

###

measured.target: constitutively active EP2 S308A (Homo sapiens, UniProt P43116, S308A)
Construct: The full-length EP2 or EP4 was cloned into the pcDNA3.1 vector; FLAG (N)
Sequence (P43116 whole entry S308A): as the sequence (P43116 whole entry S86A) above, with A86S, S308A counted along it
assay.info: GloSensor cAMP assay, inhibition of constitutive activity
observed.property: IC50
Answer with the figure and its unit, nothing else.

Enquiry: Print constitutively active EP2 S308A (Homo sapiens, UniProt P43116, S308A) IC50 for CCc1nnc(NS(=O)(=O)c2ccc(NC(=S)NC(=O)/C=C/c3ccc(F)cc3)cc2)s1 [TG6-129] .
Return: 58.9 nM

###

measured.target: constitutively active EP4 WT (Homo sapiens)
Construct: The full-length EP2 or EP4 was cloned into the pcDNA3.1 vector (Invitrogen), incorporating an N-terminal FLAG tag
Sequence (P35408 whole entry): as the sequence (P35408 whole entry) above
assay.info: GloSensor cAMP assay, inhibition of constitutive activity
observed.property: IC50
# output: number + unit

{"smiles.structure": "CCc1nc2c(C)nc(C)cc2n1-c1ccc(CCNC(=O)NS(=O)(=O)c2ccc(C)cc2)cc1", "measured.target": "constitutively active EP4 WT (Homo sapiens)", "IC50": "4.27 nM"}

// switching to the query compound
Enquiry: Consider the compound CCc1nnc(NS(=O)(=O)c2ccc(NC(=S)NC(=O)/C=C/c3ccc(F)cc3)cc2)s1 and give its recorded IC50.
Return: 5010 nM

###

measured.target: EP2 M116A (Homo sapiens, UniProt P43116, M116A)
Construct: The full-length EP2 or EP4 was cloned into the pcDNA3.1 vector; FLAG (N); expressed in transfected cells; host or cells: AD293 cells
Sequence (P43116 whole entry M116A): as the sequence (P43116 whole entry S86A) above, with A86S, M116A counted along it
assay.info: GloSensor cAMP assay, antagonism of PGE2-induced cAMP
Assay type: cell-based
observed.property: pIC50
Scale: pIC50 equals -log10([C]), with [C] in mol/L.

Enquiry: Give the value of pIC50 reported for the following: CCc1nnc(NS(=O)(=O)c2ccc(NC(=S)NC(=O)/C=C/c3ccc(F)cc3)cc2)s1 [TG6-129]
Return: 6.29

###

measured.target: EP4 S319A (Homo sapiens, UniProt P35408, S319A)
Construct: The full-length EP2 or EP4 was cloned into the pcDNA3.1 vector (Invitrogen), incorporating an N-terminal FLAG tag
Sequence (P35408 whole entry S319A): as the sequence (P35408 whole entry) above, with S319A counted along it
assay.info: GloSensor cAMP assay, antagonism of PGE2-induced cAMP
observed.property: IC50 (µM)
Kindly answer with a numeric value in µM, unit omitted.

Enquiry: Fill in reported IC50 for this entry: CCc1nc2c(C)nc(C)cc2n1-c1ccc(CCNC(=O)NS(=O)(=O)c2ccc(C)cc2)cc1
Return: 0.186

Enquiry: Check the records and state IC50 for CCc1nnc(NS(=O)(=O)c2ccc(NC(=S)NC(=O)/C=C/c3ccc(F)cc3)cc2)s1
Return: 20

###

measured.target: constitutively active EP2 W186A (Homo sapiens, UniProt P43116, W186A)
Construct: The full-length EP2 or EP4 was cloned into the pcDNA3.1 vector; FLAG (N)
Sequence (P43116 whole entry W186A): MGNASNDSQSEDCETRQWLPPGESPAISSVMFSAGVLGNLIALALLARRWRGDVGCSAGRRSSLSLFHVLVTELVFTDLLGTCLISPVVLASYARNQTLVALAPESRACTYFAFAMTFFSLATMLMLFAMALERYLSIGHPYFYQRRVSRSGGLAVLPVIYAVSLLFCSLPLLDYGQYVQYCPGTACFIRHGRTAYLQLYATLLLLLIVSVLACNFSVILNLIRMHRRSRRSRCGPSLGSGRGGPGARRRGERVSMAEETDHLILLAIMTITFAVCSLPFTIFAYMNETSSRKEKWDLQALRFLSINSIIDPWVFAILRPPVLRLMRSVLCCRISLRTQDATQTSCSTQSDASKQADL
assay.info: GloSensor cAMP assay, inhibition of constitutive activity
observed.property: pIC50
// field semantics: pIC50 = negative decimal log of concentration (mol/L)

Enquiry: Specify reported pIC50 for the compound shown: CCc1nnc(NS(=O)(=O)c2ccc(NC(=S)NC(=O)/C=C/c3ccc(F)cc3)cc2)s1
Return: 5.44

###

measured.target: constitutively active EP4 S73A (Homo sapiens, UniProt P35408, S73A)
Construct: The full-length EP2 or EP4 was cloned into the pcDNA3.1 vector (Invitrogen), incorporating an N-terminal FLAG tag; expressed in transfected cells; host or cells: AD293
Sequence (P35408 whole entry S73A): as the sequence (P35408 whole entry) above, with S73A counted along it
assay.info: GloSensor cAMP assay, inhibition of constitutive activity
Type: cell-based
observed.property: pIC50
Answer as the number alone; pIC50 is minus log10 of concentration in mol/L.

Enquiry: For constitutively active EP4 S73A (Homo sapiens, UniProt P35408, S73A), give pIC50 of the listed molecule: CCc1nc2c(C)nc(C)cc2n1-c1ccc(CCNC(=O)NS(=O)(=O)c2ccc(C)cc2)cc1 [Grapiprant]
Return: 8.66

###

measured.target: constitutively active EP2 WT (Homo sapiens, UniProt P43116)
Construct: The full-length EP2 or EP4 was cloned into the pcDNA3.1 vector; FLAG (N)
Sequence (P43116 whole entry): as the sequence (P43116 whole entry W186A) above, with A186W counted along it
assay.info: GloSensor cAMP assay, inhibition of constitutive activity
observed.property: pIC50
Scale: pIC50 equals -log10([C]), with [C] in mol/L.

Enquiry: Respond only with pIC50 recorded for CCc1nnc(NS(=O)(=O)c2ccc(NC(=S)NC(=O)/C=C/c3ccc(F)cc3)cc2)s1 [TG6-129]
Return: 7.06

###

measured.target: constitutively active EP2 S86A (Homo sapiens, UniProt P43116, S86A)
Construct: The full-length EP2 or EP4 was cloned into the pcDNA3.1 vector; FLAG (N)
Sequence (P43116 whole entry S86A): as the sequence (P43116 whole entry S86A) above
assay.info: GloSensor cAMP assay, inhibition of constitutive activity
observed.property: IC50 (nM)
Please give a number only; it is taken to be in nM.

Enquiry: Please look at CCc1nnc(NS(=O)(=O)c2ccc(NC(=S)NC(=O)/C=C/c3ccc(F)cc3)cc2)s1 and tell me its recorded IC50 on constitutively active EP2 S86A (Homo sapiens, UniProt P43116, S86A).
Return: 603

###

measured.target: EP4 S73A (Homo sapiens, UniProt P35408, S73A)
Construct: The full-length EP2 or EP4 was cloned into the pcDNA3.1 vector; FLAG (N)
Sequence (P35408 whole entry S73A): as the sequence (P35408 whole entry) above, with S73A counted along it
assay.info: GloSensor cAMP assay, antagonism of PGE2-induced cAMP
observed.property: pIC50
Scale: negative log10 of molar concentration, which is what pIC50 denotes.

Enquiry: Find the measured pIC50 of CCc1nc2c(C)nc(C)cc2n1-c1ccc(CCNC(=O)NS(=O)(=O)c2ccc(C)cc2)cc1 [Grapiprant] and report it.
Return: 8.25

###

measured.target: EP4 I317A (Homo sapiens, UniProt P35408, I317A)
Construct: The full-length EP2 or EP4 was cloned into the pcDNA3.1 vector; FLAG (N)
Sequence (P35408 whole entry I317A): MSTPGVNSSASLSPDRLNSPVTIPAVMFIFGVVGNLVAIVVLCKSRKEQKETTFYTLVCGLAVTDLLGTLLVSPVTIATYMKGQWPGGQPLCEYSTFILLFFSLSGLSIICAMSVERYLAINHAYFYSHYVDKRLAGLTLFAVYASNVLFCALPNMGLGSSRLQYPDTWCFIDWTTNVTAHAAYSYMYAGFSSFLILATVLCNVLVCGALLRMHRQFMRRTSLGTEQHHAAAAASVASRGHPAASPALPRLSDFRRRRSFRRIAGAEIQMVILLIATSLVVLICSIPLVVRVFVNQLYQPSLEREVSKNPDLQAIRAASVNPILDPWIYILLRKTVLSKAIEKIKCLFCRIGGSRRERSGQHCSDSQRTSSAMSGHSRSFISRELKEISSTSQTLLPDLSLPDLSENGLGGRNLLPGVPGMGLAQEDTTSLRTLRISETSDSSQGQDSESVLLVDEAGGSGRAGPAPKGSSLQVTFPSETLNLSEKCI
assay.info: GloSensor cAMP assay, antagonism of PGE2-induced cAMP
Experimental: The full-length EP2 or EP4 was cloned into the pcDNA3.1 vector (Invitrogen), incorporating an N-terminal FLAG tag. AD293 cells were seeded in six-well plates containing DMEM supplemented with 10% dialyzed FBS 1 day prior to transfection. Following overnight growth, cells were transfected with a 1:1 ratio of receptor construct and GloSensor22F cAMP biosensor (Promega) plasmids. […]
observed.property: IC50
Report as: number unit

Enquiry: Hello, please tell me recorded IC50 for this one: CCc1nnc(NS(=O)(=O)c2ccc(NC(=S)NC(=O)/C=C/c3ccc(F)cc3)cc2)s1 [TG6-129]
Return: 10.7 µM

###

Entries and their IC50 values follow.
measured.target: constitutively active EP4 V72A (Homo sapiens, UniProt P35408, V72A)
Construct: The full-length EP2 or EP4 was cloned into the pcDNA3.1 vector (Invitrogen), incorporating an N-terminal FLAG tag
Sequence (P35408 whole entry V72A): as the sequence (P35408 whole entry) above, with V72A counted along it
assay.info: GloSensor cAMP assay, inhibition of constitutive activity
// units = µM; emit number, no label

{"smiles.structure": "CCc1nc2c(C)nc(C)cc2n1-c1ccc(CCNC(=O)NS(=O)(=O)c2ccc(C)cc2)cc1", "measured.target": "constitutively active EP4 V72A (Homo sapiens, UniProt P35408, V72A)", "recorded.result": 0.0186}

Field: next compound
Enquiry: Write down IC50 measured for item CCc1nnc(NS(=O)(=O)c2ccc(NC(=S)NC(=O)/C=C/c3ccc(F)cc3)cc2)s1
Return: 18.6

###

measured.target: constitutively active EP4 I317A (Homo sapiens, UniProt P35408, I317A)
Construct: The full-length EP2 or EP4 was cloned into the pcDNA3.1 vector (Invitrogen), incorporating an N-terminal FLAG tag
assay.info: GloSensor cAMP assay, inhibition of constitutive activity
observed.property: IC50 (µM)
Respond numerically; units are µM and should not be typed.

Enquiry: Supply reported IC50 belonging to this compound: CCc1nnc(NS(=O)(=O)c2ccc(NC(=S)NC(=O)/C=C/c3ccc(F)cc3)cc2)s1 [TG6-129]
Return: 3.55
